# assay system: human recombinant 5-HT2C receptor (Homo sapiens (Human))
# Sequence (P28335 33-458): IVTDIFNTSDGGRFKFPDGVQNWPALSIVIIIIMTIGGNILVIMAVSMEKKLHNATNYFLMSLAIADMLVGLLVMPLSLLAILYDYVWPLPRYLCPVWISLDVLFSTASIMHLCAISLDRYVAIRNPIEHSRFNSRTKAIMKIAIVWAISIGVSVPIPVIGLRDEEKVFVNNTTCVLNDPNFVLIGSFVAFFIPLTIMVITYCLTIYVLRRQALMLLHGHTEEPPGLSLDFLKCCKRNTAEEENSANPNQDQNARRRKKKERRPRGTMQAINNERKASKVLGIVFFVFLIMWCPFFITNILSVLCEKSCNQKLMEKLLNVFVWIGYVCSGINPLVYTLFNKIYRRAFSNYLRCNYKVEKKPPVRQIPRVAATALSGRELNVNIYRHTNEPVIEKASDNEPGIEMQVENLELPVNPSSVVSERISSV
# experiment notes: 5-HT2C receptor binding inhibition test ([3H]-Mesulergine)
# condition details: Jump-In HEK cell membrane, 37° C. 2 hours, read-out: h-5-HT2C Ki
pKi: −log10 of the molar value.
# maps each entry to its pKi

Worked set:
compound	pKi
CC(C)COc1ccc(CN(Cc2ccco2)C2=NC(=O)C3(CCN(C)CC3)N2)cc1 [Compound I-063]	7.00 to 8.00
CCCCOc1ccc(CN(Cc2coc(C)n2)C2=NOC3(CCNCC3)N2)cc1 [Compound I-134]	> 8.00
CC(C)COc1ccc(CN(Cc2cn(C)cn2)C2=NOC3(CCN(C)CC3)N2)cc1 [Compound I-019]	6.30 to 7.00
Cc1nc(CN(Cc2ccc3c(c2)nnn3C)C2=NOC3(CCN(C)CC3)N2)co1 [Compound I-093]	6.30 to 7.00
Cc1nc(CN(Cc2ccc(Cc3ccccc3)cc2)C2=NOC3(CCN(C)CC3)N2)co1 [Compound I-119]	> 8.00

I would be grateful if you could share the reported pKi for Cc1nc(CN(Cc2cc3ccc(Br)cc3s2)C2=NOC3(CCN(C)CC3)N2)co1 [Compound I-102] .
> 8.00

I would be grateful if you could share the reported pKi for Cc1nc(CN(Cc2cnc3ccccc3c2)C2=NOC3(CCN(C)CC3)N2)co1 [Compound I-095] .
6.30 to 7.00

I would be grateful if you could share the reported pKi for CCOCc1ccc(CN(Cc2coc(C)n2)C2=NOC3(CCN(C)CC3)N2)cc1 [Compound I-124] .
7.00 to 8.00

====

# maps each entry to its pKi
# assay system: human recombinant 5-HT2A receptor (Homo sapiens (Human), UniProt P28223)
# Sequence (P28223 whole entry): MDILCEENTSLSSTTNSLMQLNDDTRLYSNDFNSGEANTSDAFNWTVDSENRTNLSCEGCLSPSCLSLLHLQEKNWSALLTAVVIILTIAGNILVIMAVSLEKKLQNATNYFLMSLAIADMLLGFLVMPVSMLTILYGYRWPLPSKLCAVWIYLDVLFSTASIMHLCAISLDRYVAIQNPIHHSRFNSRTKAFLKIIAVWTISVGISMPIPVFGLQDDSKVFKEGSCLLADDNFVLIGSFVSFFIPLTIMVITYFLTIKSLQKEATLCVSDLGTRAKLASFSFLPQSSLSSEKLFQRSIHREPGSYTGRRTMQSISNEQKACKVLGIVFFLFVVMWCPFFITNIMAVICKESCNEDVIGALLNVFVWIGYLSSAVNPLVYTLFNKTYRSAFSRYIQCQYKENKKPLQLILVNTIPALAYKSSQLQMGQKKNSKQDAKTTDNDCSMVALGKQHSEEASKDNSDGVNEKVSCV
# experiment notes: 5-HT2A receptor binding inhibition test ([3H]-Ketanserin)
# condition details: Jump-In HEK cell membrane, 25° C. 1.5 hours, read-out: h-5-HT2A Ki
pKi: −log10 of the molar value.

compound	pKi
Cc1nc(CN(Cc2ccc(OCC(C)C)cc2)C2=NC3(CCN(C)CC3)ON2C)co1 [Compound I-052]	6.30 to 7.00
Cc1nc(CN(Cc2ccsc2)C2=NOC3(CCN(C)CC3)N2)co1 [Compound I-073]	7.00 to 8.00
Cc1nc(CN(Cc2cccs2)C2=NOC3(CCN(C)CC3)N2)co1 [Compound I-069]	7.00 to 8.00
CCCCOc1ccc(CN(Cc2coc(C)n2)C2=NOC3(CCN(C)CC3)N2)c(Br)c1 [Compound I-092]	> 8.00
Cc1nc(CN(Cc2nc3ccccc3s2)C2=NOC3(CCN(C)CC3)N2)co1 [Compound I-098]	> 8.00
Cc1nc(CN(Cc2ccc(OCC(C)C)cc2)C2=NO[C@@]3(CCNC[C@H]3F)N2)co1 (racemic) [Compound I-085]	> 8.00
COc1ccc2oc(CN(Cc3coc(C)n3)C3=NOC4(CCN(C)CC4)N3)nc2c1 [Compound I-088]	7.00 to 8.00
CC(C)COc1ccc(CN(Cc2cnn(C)n2)C2=NOC3(CCN(C)CC3)N2)c(F)c1 [Compound I-106]	> 8.00

I would be grateful if you could share the reported pKi for Cc1nc(CN(Cc2ccc(OCC(C)C)cc2)C2=NOC3(CCNCC3)N2)co1 [Compound I-048] .
> 8.00

I would be grateful if you could share the reported pKi for CCCCOc1ccc(CN(Cc2cnn(C)n2)C2=NOC3(CCN(C)CC3)N2)cc1F [Compound I-111] .
> 8.00

I would be grateful if you could share the reported pKi for Cc1nc(CN(Cc2ccc(OCC(F)(F)F)cc2)C2=NOC3(CCN(C)CC3)N2)co1 [Compound I-047] .
> 8.00

I would be grateful if you could share the reported pKi for CC(C)COc1ccc(CN(Cc2ccc(F)cc2)C2=NC3(CCN(C)CC3)CO2)cc1 [Compound I-020] .
7.00 to 8.00
